molecular target: Carbonic anhydrase 12 (Homo sapiens); assay: Binding affinity to human carbonic anhydrase 12 by stopped flow CO2 hydration method
Sequence (O43570 whole entry): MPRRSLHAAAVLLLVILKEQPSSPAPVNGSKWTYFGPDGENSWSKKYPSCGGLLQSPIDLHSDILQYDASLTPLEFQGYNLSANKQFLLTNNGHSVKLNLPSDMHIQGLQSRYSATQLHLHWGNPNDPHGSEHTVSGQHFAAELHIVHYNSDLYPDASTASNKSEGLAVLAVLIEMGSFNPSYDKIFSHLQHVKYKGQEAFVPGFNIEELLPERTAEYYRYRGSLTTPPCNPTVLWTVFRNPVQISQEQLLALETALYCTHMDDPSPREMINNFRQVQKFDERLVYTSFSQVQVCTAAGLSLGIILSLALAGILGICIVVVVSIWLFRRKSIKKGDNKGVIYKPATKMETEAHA
OBSERVED_PROPERTY: pKi
Please express pKi as -log10 of the molar concentration.

Prompt: Kindly state the measured pKi obtained for Cc1c(CC(=O)O)c(=O)oc2cc3occ(-c4ccccc4)c3cc12 with Carbonic anhydrase 12 (Homo sapiens).
Response: 8.03

###

Observed pKi, system Carbonic anhydrase 9 (Homo sapiens).
Please express pKi as -log10 of the molar concentration.

Prompt: Look up pKi: Cc1c(CC(=O)O)c(=O)oc2cc3occ(-c4ccc(F)cc4)c3cc12
Response: 7.75

Prompt: Look up pKi: Cc1c(CC(=O)Nc2ccc(S(N)(=O)=O)cc2)c(=O)oc2cc3occ(-c4ccccc4)c3cc12
Response: 7.78

Prompt: Look up pKi: COC(=O)Cc1c(C)c2ccc(OCC(=O)c3ccc(C)cc3)cc2oc1=O
Response: 6.91

Prompt: Look up pKi: Cc1ccc(-c2coc3cc4oc(=O)c(CC(=O)O)c(C)c4cc23)cc1
Response: 7.64

Prompt: Look up pKi: COC(=O)Cc1c(C)c2ccc(OCC(=O)c3ccccc3)cc2oc1=O
Response: 7.05
